Origin of values: PubChem BioAssay (NCI)

growth inhibition values by entry
ASSAY METHOD TEXT: NCI Yeast Anticancer Drug Screen. Data for the CLN2oe strain (AID 163);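 further: 0% = growth of vehicle-only control cultures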
COND: S. cerevisiae CLN2oe strain, at 3.7 µM, active compounds read high
The panel holds about 79,000 compounds, 15% with a hit somewhere; the sample as a whole holds those more often.
MEASUREMENT LABEL: growth inhibition (%)

molecule=Cc1ccc2oc(-c3cccc(N)c3)nc2c1 measurement_label="growth inhibition" unit=% result=-6
molecule=O=c1[nH]cc(F)c(=O)[nH]1 measurement_label="growth inhibition" unit=% result=23
molecule=Nc1ccc2cc(Br)c3ccccc3c2c1 measurement_label="growth inhibition" unit=% result=-19
molecule=COc1ccc2c(C)cc(N/N=C/c3sccc3C)nc2c1 measurement_label="growth inhibition" unit=% result=-9
molecule="CCCCCCCCCCCCCCCCOCC(Cl)COP(=O)(O)OP(=O)(O)OCC1OC(n2cnc3c(N)ncnc32)C(O)C1O (stereo not drawn)" measurement_label="growth inhibition" unit=% result=2
molecule="COC(=O)C1(N2CCOCC2)CCC([C@@H](c2ccccc2)C(C)[N+](=O)[O-])C1 (stereo partly drawn)" measurement_label="growth inhibition" unit=% result=-4
molecule=Oc1ccc(Br)cc1C=Nc1cccc(C(F)(F)F)c1 measurement_label="growth inhibition" unit=% result=-1
molecule=CCc1nc2ccc(N=Nc3c(O)ccc4ccccc34)cc2[nH]1 measurement_label="growth inhibition" unit=% result=1
molecule=Cc1[nH]nc(C(F)(F)F)c1N=NN(C)C measurement_label="growth inhibition" unit=% result=8
molecule="CC1C=CN(N(C)C)C2=C1C(=O)c1cnccc1C2=O (stereo not drawn)" measurement_label="growth inhibition" unit=% result=10
molecule=C[n+]1c(-c2ccc(NC(=O)c3ccc(C(=O)Nc4ccc(-c5cn6ccccc6[n+]5C)cc4)cc3)cc2)cn2ccccc21 measurement_label="growth inhibition" unit=% result=-4
molecule=CCSc1c2ccccc2c(-c2nc(F)nc(F)n2)n1CCc1ccccc1 measurement_label="growth inhibition" unit=% result=-20
molecule="[N-]=[N+]=NC1CC(n2ccc(=O)[nH]c2=O)OC1COC(c1ccccc1)(c1ccccc1)c1ccccc1 (stereo not drawn)" measurement_label="growth inhibition" unit=% result=-4
molecule="CCC1SC(=S)N(c2ccc(Cl)cc2)C1=O (stereo not drawn)" measurement_label="growth inhibition" unit=% result=-10
molecule="CC[N+]1(C)CCC(O)(/C=C/c2ccc(Cl)c(Cl)c2)C(C(=O)/C=C/c2ccc(Cl)c(Cl)c2)C1 (stereo not drawn)" measurement_label="growth inhibition" unit=% result=15
molecule=O=c1[nH]c(=O)n(CCCO)cc1F measurement_label="growth inhibition" unit=% result=8
molecule="COc1ccc(/C(=N/O)c2ccccc2C2=Nc3ccccc3C(NCc3ccccc3)O2)cc1C (stereo not drawn)" measurement_label="growth inhibition" unit=% result=2
molecule=O=C(CCCN1CCC2(CC1)OC(=O)N(c1ccccc1)C2=O)c1ccccc1 measurement_label="growth inhibition" unit=% result=63
molecule=COc1cc(NCCCCCNC(C)C)c2ncccc2c1Cl measurement_label="growth inhibition" unit=% result=-6
molecule=CCN(CC)c1cccc(Nc2nc3ccccc3s2)c1 measurement_label="growth inhibition" unit=% result=1
molecule=Cc1ccc2nc(N/N=C/c3ccc(C)s3)cc(C)c2c1 measurement_label="growth inhibition" unit=% result=-5
molecule=S=c1[nH]nc(Cc2ccccc2)c(=S)[nH]1 measurement_label="growth inhibition" unit=% result=25
molecule=Nc1c([N+](=O)[O-])cc2c3c(cccc13)CC2 measurement_label="growth inhibition" unit=% result=14
